B1: EHMT1 (parent)
chain: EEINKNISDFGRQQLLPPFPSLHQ

Variants of: B1
assay_info: protein stability index of a GFP-peptide fusion (GPS, HEK-293T) (PSI 1-6); higher = more stable;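 also: lentivirally expressed fusions sorted by FACS into six bins by GFP to DsRed ratio, PSI derived from sequencing read proportions per bin multiplied by bin number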
test_conditions: c terminus: a fixed tail appended
Use true (1) when the recorded protein stability index is no lower than 3; use false (0) when it is lower.

Solved entries:
EEINKNISDFGRQQLLPPWPSLHQ [F19W]    false (0)
HEINKNISDFGRQQLLPPFPSLHQ [E1H]    false (0)
EEINKNISDFGRQQLLPPFQSLHQ [P20Q]    true (1)
EEINKNISDFGRQQLLPPFPSWHQ [L22W]    false (0)
EEINKHISDFGRQQLLPPFPSLHQ [N6H]    false (0)

Query string: Identify whether the reported protein stability index of the following variant is 3 or greater: EEINKNISDFGRYQLLPPFPSLHQ [Q13Y]
Result string: false (0)
